# reported Trimeric HA Binding RLU; entries follow
# TESTED_TARGET: recombinant soluble homotrimeric HA of A/common magpie/Hong Kong/5052/07 (H5N1) (Influenza A virus A/common magpie/Hong Kong/5052/2007 (H5N1))
# ASSAY_PROCEDURE: HA microarray, BCC supernatant
# PARTICULARS: remark: other sources report otherwise
Kindly answer with a numeric value in RLU, unit omitted.

TCN-533 (5256_A17) (antibody, V domains shown) VH: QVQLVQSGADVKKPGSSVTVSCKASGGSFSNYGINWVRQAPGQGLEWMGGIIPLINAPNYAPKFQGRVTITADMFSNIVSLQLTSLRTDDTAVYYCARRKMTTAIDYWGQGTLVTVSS VL: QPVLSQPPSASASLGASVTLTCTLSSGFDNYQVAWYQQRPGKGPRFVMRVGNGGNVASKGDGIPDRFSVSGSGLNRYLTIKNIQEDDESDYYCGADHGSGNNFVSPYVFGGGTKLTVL :: 44500

Below: the item to evaluate.
Just so you know, measured Trimeric HA Binding RLU for TCN-553 (5261_C18) (antibody, V domains shown) VH: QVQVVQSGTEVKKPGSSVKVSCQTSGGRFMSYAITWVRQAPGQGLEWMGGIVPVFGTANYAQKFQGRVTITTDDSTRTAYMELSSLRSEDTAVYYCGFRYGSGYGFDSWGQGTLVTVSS VL: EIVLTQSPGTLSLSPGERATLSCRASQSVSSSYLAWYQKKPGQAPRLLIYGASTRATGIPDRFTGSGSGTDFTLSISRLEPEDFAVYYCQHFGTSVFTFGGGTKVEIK came out at 26000

The reported measurements were obtained from patent US20150104459A1.
